Task for the reader: assign each of the following compounds its reported pKi.
- SYSTEM NAME: Neuromedin-B receptor (Homo sapiens, UniProt P28336)
- Sequence (P28336 whole entry): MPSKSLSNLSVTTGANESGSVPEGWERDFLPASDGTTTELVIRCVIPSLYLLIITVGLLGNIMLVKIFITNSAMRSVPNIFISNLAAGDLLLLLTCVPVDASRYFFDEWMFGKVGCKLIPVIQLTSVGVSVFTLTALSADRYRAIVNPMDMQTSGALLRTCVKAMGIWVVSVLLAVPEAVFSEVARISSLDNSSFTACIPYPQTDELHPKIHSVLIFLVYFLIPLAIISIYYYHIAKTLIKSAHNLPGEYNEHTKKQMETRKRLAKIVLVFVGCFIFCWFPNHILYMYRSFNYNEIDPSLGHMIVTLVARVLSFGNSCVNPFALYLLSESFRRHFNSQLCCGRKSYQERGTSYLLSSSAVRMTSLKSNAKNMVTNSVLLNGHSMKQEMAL
- PROCEDURE TEXT: Binding affinity against [125 I][4Tyr]-bombesin labeled cloned human NMB receptor stably expressed in CHO cells
- Format: cell-based
Answers are plain numbers, as −log10 of the molar value.

Some compounds with recorded pKi:
COMPOUND: CC(C)c1cccc(C(C)C)c1NC(=O)NC(C)(Cc1c[nH]c2ccccc12)C(=O)NC1CCCCC1 (centres undefined)
NUMERIC READOUT: 6.51

COMPOUND: CC(C)c1cccc(C(C)C)c1NC(=O)N[C@](C)(Cc1c[nH]c2ccccc12)C(=O)NC1CCCc2ccccc21 (some centres undefined)
NUMERIC READOUT: 7.85

COMPOUND: CC(C)c1cccc(C(C)C)c1NC(=O)NC(C)(Cc1c[nH]c2ccccc12)C(=O)NC1CCc2ccccc2C1 (centres undefined)
NUMERIC READOUT: 6.51

Turning now to a further compound:
INPUT: Item under review: CC(C)c1cccc(C(C)C)c1N(C)C(=O)NC(Cc1c[nH]c2ccccc12)C(=O)NCC1CCCCC1 (centres undefined) . Reported pKi?
OUTPUT: 6.59
